Biological target: T1, human IL-11 (human, UniProt P20809 22-199)
T1 sequence: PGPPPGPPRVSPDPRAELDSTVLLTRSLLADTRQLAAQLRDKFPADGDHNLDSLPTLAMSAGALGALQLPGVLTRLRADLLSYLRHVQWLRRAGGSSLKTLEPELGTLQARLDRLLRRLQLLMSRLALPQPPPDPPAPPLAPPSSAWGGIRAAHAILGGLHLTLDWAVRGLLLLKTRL
Assay: cell-based or functional assay
Could you please report measured RGA Efficacy (%) for the items listed next?
The reply should be a number in %, with the unit left off.

Q: Entry under review: TPP-26320 (antibody, V domains shown) VH: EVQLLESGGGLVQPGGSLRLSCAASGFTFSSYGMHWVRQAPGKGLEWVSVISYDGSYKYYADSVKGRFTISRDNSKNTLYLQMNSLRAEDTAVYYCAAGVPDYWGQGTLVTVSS VL: QSVLTQPPSASGTPGQRVTISCTGSSSNIGAGYDVHWYQQLPGTAPKLLIYSNEERPSGVPDRFSGSKSGTSASLAISGLRSEDEADYYCAAWDDSLNGPVFGGGTKLTVL . Reported RGA Efficacy (%)?
Ans: 70.3

Q: Entry under review: TPP-26313 (antibody, V domains shown) VH: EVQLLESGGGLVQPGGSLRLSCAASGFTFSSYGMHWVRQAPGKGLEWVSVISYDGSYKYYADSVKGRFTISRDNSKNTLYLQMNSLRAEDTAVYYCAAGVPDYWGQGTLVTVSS VL: QSVLTQPPSASGTPGQRVTISCTGSSSNIGAYYDVHWYQQLPGTAPKLLIYSNNERPSGVPDRFSGSKSGTSASLAISGLRSEDEADYYCAAWDDSLNGPVFGGGTKLTVL . Reported RGA Efficacy (%)?
Ans: 76.1
